System: H-gal-GP
Experiment: Azocasein proteolysis by H-gal-GP at pH 7 with a panel of proteinase inhibitors (neutral endopeptidase-like activity)
Type: biochemical, H.contortus
Conditions: second analysis, same batch of H-gal-GP, inhibitor 1mM, overnight at 37°C
Description: Proteinase activity was determined using azocasein as substrate in a microassay system. […] The 0D₄₀₅ of the supernatant was determined using a "Monarch" microcentrifugal analyser (Instrumentation Laboratory, Warrington, UK). After subtraction of the appropriate reagent blank the degree of inhibition was expressed as the percent activity remaining compared to the control reaction.
Square brackets hold non-standard residues; d marks the D form. Peptide text beside a SMILES is read from it. * marks the point of attachment. Sta = CC(C)C[C@H](N)[C@@H](O)CC(=O)O; Isovaleryl = CC(C)CC(=O)*
parameter: % activity remaining (%)
Provide the reading as a plain figure in %.

Could you please provide reported % activity remaining for CCN1C(=O)C=CC1=O [N-ethylmaleimide] ? Thanks! 77

Could you please provide reported % activity remaining for N[C@@H](CCC(=O)N[C@@H](CS)C(=O)NCC(=O)O)C(=O)O ? Thanks! 85

Could you please provide reported % activity remaining for O[C@H](CS)[C@H](O)CS (racemic) ? Thanks! 44

Could you please provide reported % activity remaining for CC(C)CC(=O)N[C@H](C(=O)N[C@H](C(=O)N[C@@H](CC(C)C)[C@@H](O)CC(=O)N[C@@H](C)C(=O)N[C@@H](CC(C)C)[C@@H](O)CC(=O)O)C(C)C)C(C)C [Pepstatin, pepstatin] (Isovaleryl-VV[Sta]A[Sta]-OH) ? Thanks! 85

Could you please provide reported % activity remaining for O=C([O-])c1cc[c]([Hg][OH])cc1 [4-hydroxymercuribenzoate] ? Thanks! 91

Could you please provide reported % activity remaining for c1cnc2c(c1)ccc1cccnc12 ? Thanks! 23

Could you please provide reported % activity remaining for O=C(O)CN(CCN(CC(=O)O)CC(=O)O)CC(=O)O ? Thanks! 10

Could you please provide reported % activity remaining for N[C@@H](CS)C(=O)O ? Thanks! 0
